Assay: soluble on expression in E. coli; label from the status in PepcDB or PDB records
measurement name: soluble on expression in E. coli

Solved entries:
MAHHHHHHMVRRLEGNPVPTIGIIFMLHAHRTAHLKYYQSMSLFAIENVDVVWGAAGYSILKQTQGAWMALYDEAYVSENKVMPFGYLVQNGVLMPTSDPCNAANTLAGDGSATAKKWGGTSQQKHRYAYEADVVPRRSCIKARTRSADNSGRRVTFCSGDTEFGVF	not soluble
MIFEDKFIITTADEIPGLQLYSLGIASTISDNVDEIVENLRKQVKAKGGMGLIAFRITCADGKFLGYGTIVKADEAQFTMA	soluble
MGSDKIHHHHHHMALRIYGDSISGNCLKVKWTADRLGIAYDWIETNVLTAETRTSAFMALNPAGQVPLAVFPDGRPLAQSNAIIFHLAEGSDLIPGNAFDRAKMLEWMFWEQYSHEPYIAVARFQVLYLGKPVESLEPRLIERGADALARLETQLQRSTFLVGDKLTLADVALVAYTRVAHEGGFDLSLYPAVEAWVGRVEADLGIR	not soluble
EQTALKKVAEMARLADSYVSAWGDEAKVSDETLRRLLTSLGYDTSSDEKLLASAEKKHKKDVLAPVLVLRDGEPVEVELNLGTSARESEFSWRLETEQGEVLEGYLQSQIVRDERAEGGPLVFALPKNLAWGYHKLIISRKRRKTPYEMSLIITPKACFKQEDLNQ	not soluble
MGHHHHHHSHMVVLRAGKKTFLPALCRAFACRGCQLAPERGAERRDTAPSGVSRFCPPRKSCHDWIGPPDKYSNLRPVHFYIPENESPLEQKLRKLRQETQEWNQQFWANQNLTFSKEKEEFIHSRLKTKGLGLRTESGQKATLNAEEMADFYKEFLSKNFQKHMYYNRDWYKRNFAITFFMGKVALERIWNKLKQKQKKRSN	not soluble
MARGREAVTLLLVGWGYAPGMQTLEALDAVRRADVVYVESYTMPGSSWLYKSVVEAAGEARVVEASRRDLEERSREIVSRALDAVVAVVTAGDPMVATTHSSLAAEALEAGVAVRYIPGVSGVQAARGATMLSFYRFGGTVTLPGPWRGVTPISVARRIYLNLCAGLHTTALLDVDERGVQLSPGQGVSLLLEADREYAREAGAPALLARLPSVLVEAGAGGGHRVLYWSSLERLSTADVEGGVYSIVIPARLSGVEEWLLAAASGQRRPLEYDRSVYETVEENCKKGVYMEPV	soluble
MKQPGEELQETLTELDDRAVVDYLIKNPEFFIRNARAVEAIRVPHPVRGTVSLVEWHMARARNHIHVLEENMALLMEQAIANEGLFYRLLYLQRSLTAASSLDDMLMRFHRWARDLGLAGASLRLFPDRWRLGAPSNHTHLALSRQSFEPLRIQRLGQEQHYLGPLNGPELLVVLPEAKAVGSVAMSMLGSDADLGVVLFTSRDASHYQQGQGTQLLHEIALMLPELLERWIERV	not soluble
GSSQISDMTRDGLANKALAVARTLADSPEIRQGLQKKPQESGIQAIAEAVRKRNDLLFIVVTDMQSLRYSHPEAQRIGQPFKGDDILKALNGEENVAINRGFLAQALRVFTPIYDENHKQIGVVAIGLELSRVTQQINDSRW	soluble

-- ask For MESKHKLSINQWALEDRPREKMMEKGAAALSDAELLAILIGSGNTEESAVELMRRLLLSCDNNLNSLAKWEVCDYSRFKGMGPAKSITVMAALELGKRRKLQNIQERPRISCSRDIYDIFQPVMCDLEQEEFWVLLLNQATRLIDKVRISTGGIDGTYTDVRTILREALLQRATQIAVVHNHPSGNIQPSQPDRTLTEHIRRAADTMNIRLIDHVIVCEDKFYSFADEGLL , what is its reported soluble on expression in E. coli?
-- reply not soluble

-- ask // repeat for MGSDKIHHHHHHMKVAVIGAKGQLGTDLVDVLKEEFTVYPLTHEDVDVAVSESLEVLRDIHPDVIINTAAYVRVDDAENHAEKAFAVNAIGALNVARISSEIDAVNIYISTDYVFDGEKGEPYVETDKPNPINVYGASKYAGEILTKNYSEKHYVIRVASLYGKAGASGKGGNFVNWVVDMARKGQELRIVADQFMSPTYTKDVALAVREFLKLRPDYGIYHMVNDGYCSWFEFTKAIFEILDWDVEIQPIKSSELNRLARRPAFSALQNYKLERIGIKMRHWREALRDYLAEKGLV and report
-- reply not soluble

-- ask // repeat for MSRLGYVMTKASAKNFKVYINGSARGYRNIIINGAKSWNPSPYLNTVTMGNDVKPNFTVSSSNTNKGSVLAVCNTTYYKSNKLIVKNEITLYKGFRSLSNNHKIETVAHEFGHGFGLGHVKTRNAIMLDKGFINKTKPQKLEHHHHHH and report
-- reply not soluble

-- ask // repeat for MKRIARLLLSCICLALLSGCLYPQERLKQNQIPYKDQVAAVQSAVDEYRKATGGLLPIKTRDMNTPMYLKYPVDFQKLVPRYMQEPPGNAYESGGVFQYMIIDAETNPTVKLLDLRLAERIRDLKLRLSMYTDKHKYPPFQDVVAPGVFTLDYKKLGYKEPPYVVSPFSGNNLPFVIDGNGEIYIDYRSDLYAALKKYPHHYKPGDDIRPILTDHSLFVPAYSLPYTIDAKTNEPIFFTK and report
-- reply not soluble

-- ask // repeat for MGSDKIHHHHHHMTMPTNQCPWRMQVHHITQETPDVWTISLICHDYYPYRAGQYALVSVRNSAETLRAYTISSTPGVSEYITLTVRRIDDGVGSQWLTRDVKRGDYLWLSDAMGEFTCDDKAEDKFLLLAAGCGVTPIMSMRRWLAKNRPQADVRVIYNVRTPQDVIFADEWRNYPVTLVAENNVTEGFIAGRLTRELLAGVPDLASRTVMTCGPAPYMDWVEQEVKALGVTRFFKEKFFTPVAEAATSGLKFTKLQPAREFYAPVGTTLLEALESNNVPVVAACRAGVCGCCKTKVVSGEYTVSSTMTLTDAEIAEGYVLACSCHPQGDLVLA and report
-- reply not soluble

###

Test: soluble on expression in E. coli; label from the status in PepcDB or PDB records
measurement name: soluble on expression in E. coli

Solved entries:
MGHHHHHHSHMAGWIQAQQLQGDALRQMQVLYGQHFPIEVRHYLAQWIESQPWDAIDLDNPQDRAQATQLLEGLVQELQKKAEHQVGEDGFLLKIKLGHYATQLQKTYDRCPLELVRCIRHILYNEQRLVREANNCSSP	not soluble
PLNRLGHKIYQHSGKWLQETAAEKLNQRDQLINPGHAQVLILGMGRIGTGAYDELRARYGKISLGIEIREEAAQQHRSEGRNVISGDATDPDFWERILDTGHVKLVLLAMPHHQGNQTALEQLQRRNYKGQIAAIAEYPDQLEGLLESGVDAAFNIYSEAGSGFARHVCKQLEPQFTSIK	soluble
SLRFLGEKAAAKRQVLNADSVEQSFVGLKQLISCRNWRAAVDLCGRLLTAHGQGYGKSGLLTSHTTDSLQLWFVRLALLVKLGLFQNAEMEFEPFGNLDQPDLYYEYYPHVYPGRRGSMVPFSMRILHAELQQYLGNPQESLDRLHKVKTVCSKILANLEQGLAEDGGMSSVTQEGRQASIRLWRSRLGRVMYSMANCLLLMKDYVLAVEAYHSVIKYYPEQEPQLLSGIGRISLQIGDIKTAEKYFQDVEKVTQKLDGLQGKIMVLMNSAFLHLGQNNFAEAHRFFTEILRMDPRNAVANNNAAVCLLYLGKLKDSLRQLEAMVQQDPRHYLHESVLFNLTTMYELESSRSMQKKQALLEAVAGKEGDSFNTQCLKLA	not soluble
SDESDLPSAMPAVPAFGVEERNMVSGVLTLAERSIRSIMTPRTDVSWVNIDDDAATIRQQLTAAPHSFFPVCRGSLDEVVGIGRAKDLVADLITEGRVRRNRLRDPIIVHESIGILRLMDTLKRSRGQLVLVADEFGAIEGLVTPIDVFEAIAGEFPDEDELPDIVAESE	soluble
MRGSHHHHHHPEYDYIRDGNAIYERSFAIIRAEADLSRFSEEEADLAVRMVHACGSVEATRQFVFSPDFVSSARAALKAGAPILCDAEMVAHGVTRARLPAGNEVICTLRDPRTPALAAEIGNTRSAAALKLWSERLAGSVVAIGNAPTALFFLLEMLRDGAPKPAAILGMPVGFVGAAESKDALAENSYGVPFAIVRGRLGGSAMTAAALNSLARPGL	soluble

For the next question, use this sequence.
-- ask For MGSDKIHHHHHHMNTNTSITIQKPKTDELLLWNLLFADTGRQVLLVAYDIKLFPLLSQKPCTLAEICNELKIFQRPAEAILAVLASIELLEIENNYYSLTLLAKDYLVKSSPTYFGALLEMMIFDERKHISSFDSLKKSLFTNNYPGKKVMESLVKNHDFMRTITFGNNVKLIRGFISSMHGPSMAAALIWPELIDLSEYKLFIDIGGGSAAHSIGATLKWPNLQAVVLELPTVCEIAQEFITHYGLQNRIATQEFDMWSDTFPVGDLHFYSAVYHHWQQEKCQVITKKSFNSLLPGGRIILHEMLFNEQKTGPFPVAAKNLNISLKLGGQQYSGQELSMMLEQAGFIDIEIKPASSYWSIITGRKP , what is its reported soluble on expression in E. coli?
-- reply not soluble
